Cited source: paper PMC10247784

# SYSTEM_UNDER_TEST: human TAS2R1 (Homo sapiens)
# Construct: expressed in transfected cells; host or cells: HEK293T-Gα16gust44
# ASSAY_TEXT: Calcium imaging assay (FLIPR), HEK293T-Gα16gust44 cells transfected with human TAS2R1
# Assay type: cell-based
# CONDITION_DESCRIPTION: Time 167.547 s
MEASURE: RLU (RLU)
Hi! Could you send only the number? It should be in RLU, unit omitted.

The following compounds have reported results that may help.
[
  {
    "SMILES_NOTATION": "C[C@H](CCC(=O)NCCS(=O)(=O)O)[C@H]1CC[C@H]2[C@@H]3CC[C@@H]4C[C@H](O)CC[C@]4(C)[C@H]3CC[C@]12C",
    "U": "RLU",
    "RLU": 191.55
  },
  {
    "SMILES_NOTATION": "C[C@H](CCC(=O)NCCS(=O)(=O)O)[C@H]1CC[C@H]2[C@@H]3[C@H](O)C[C@@H]4C[C@H](O)CC[C@]4(C)[C@H]3C[C@H](O)[C@]12C",
    "U": "RLU",
    "RLU": 178.916
  },
  {
    "SMILES_NOTATION": "C[C@H](CCC(=O)NCC(=O)O)[C@H]1CC[C@H]2[C@@H]3[C@H](O)C[C@@H]4C[C@H](O)CC[C@]4(C)[C@H]3C[C@H](O)[C@]12C",
    "U": "RLU",
    "RLU": 251.037
  }
]

Shifting focus to the compound that follows.
# input Quick one: RLU for C[C@H](CCC(=O)O)[C@H]1CC[C@H]2[C@@H]3CC[C@@H]4C[C@H](O)CC[C@]4(C)[C@H]3C[C@H](O)[C@]12C ?
# output 279.035

* * *

# Lookup of reported RLU keyed by entry
# SYSTEM_UNDER_TEST: human TAS2R1 (Homo sapiens, UniProt Q9NYW7)
# Construct: expressed in transfected cells; host or cells: HEK293T-Gα16gust44
# Sequence (Q9NYW7 whole entry): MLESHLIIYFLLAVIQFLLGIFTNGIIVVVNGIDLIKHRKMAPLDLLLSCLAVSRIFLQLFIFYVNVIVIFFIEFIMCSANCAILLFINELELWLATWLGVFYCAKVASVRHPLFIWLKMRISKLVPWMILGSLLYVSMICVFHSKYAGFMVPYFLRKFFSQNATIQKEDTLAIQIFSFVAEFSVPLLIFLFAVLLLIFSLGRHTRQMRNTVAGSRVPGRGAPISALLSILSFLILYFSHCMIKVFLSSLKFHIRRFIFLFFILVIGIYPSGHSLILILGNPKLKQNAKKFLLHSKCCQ
# ASSAY_TEXT: Calcium imaging assay (FLIPR), HEK293T-Gα16gust44 cells transfected with human TAS2R1
# Format: cell-based
# CONDITION_DESCRIPTION: Time 108.781 s

The following molecules have reported results that may help.
[
  {
    "SMILES_NOTATION": "C[C@H](CCC(=O)O)[C@H]1CC[C@H]2[C@@H]3CC[C@@H]4C[C@H](O)CC[C@]4(C)[C@H]3C[C@H](O)[C@]12C",
    "SYSTEM_UNDER_TEST": "human TAS2R1 (Homo sapiens, UniProt Q9NYW7)",
    "RLU": "409.236 RLU"
  },
  {
    "SMILES_NOTATION": "C[C@H](CCC(=O)NCCS(=O)(=O)O)[C@H]1CC[C@H]2[C@@H]3[C@H](O)C[C@@H]4C[C@H](O)CC[C@]4(C)[C@H]3C[C@H](O)[C@]12C",
    "SYSTEM_UNDER_TEST": "human TAS2R1 (Homo sapiens, UniProt Q9NYW7)",
    "RLU": "318.822 RLU"
  }
]

# input Quick one: RLU for C[C@H](CCC(=O)NCCS(=O)(=O)O)[C@H]1CC[C@H]2[C@@H]3CC[C@@H]4C[C@H](O)CC[C@]4(C)[C@H]3CC[C@]12C ?
# output 602.431 RLU

# input Quick one: RLU for C[C@H](CCC(=O)NCC(=O)O)[C@H]1CC[C@H]2[C@@H]3[C@H](O)C[C@@H]4C[C@H](O)CC[C@]4(C)[C@H]3C[C@H](O)[C@]12C ?
# output 501.47 RLU

* * *

# Lookup of reported RLU, fluorescence trace keyed by entry
# SYSTEM_UNDER_TEST: human TAS2R4 (Homo sapiens)
# Construct: expressed in transfected cells; host or cells: HEK293T-Gα16gust44
# Sequence (Q9NYW5 whole entry): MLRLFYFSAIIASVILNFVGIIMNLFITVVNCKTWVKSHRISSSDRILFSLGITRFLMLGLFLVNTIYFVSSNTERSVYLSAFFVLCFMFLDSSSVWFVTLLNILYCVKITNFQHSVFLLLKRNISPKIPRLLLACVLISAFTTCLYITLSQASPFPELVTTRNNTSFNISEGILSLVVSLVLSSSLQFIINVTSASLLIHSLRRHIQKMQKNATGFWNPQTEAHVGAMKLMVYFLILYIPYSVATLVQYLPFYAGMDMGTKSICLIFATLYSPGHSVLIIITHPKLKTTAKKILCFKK
# ASSAY_TEXT: Calcium imaging assay (FLIPR), HEK293T-Gα16gust44 cells transfected with human TAS2R4; further: test concentration or dose not given here
# Type: cell-based
# CONDITION_DESCRIPTION: Time (s) 90.781 (TCA, TLCA: 90.782)
Hi! Could you send only the number? It should be in RLU, unit omitted.

The following compounds have reported results that may help.
[
  {
    "SMILES_NOTATION": "C[C@H](CCC(=O)O)[C@H]1CC[C@H]2[C@@H]3[C@@H](O)C[C@@H]4C[C@H](O)CC[C@]4(C)[C@H]3CC[C@]12C",
    "MEASURE": "RLU, fluorescence trace",
    "U": "RLU",
    "RESULT_NUMBER": 310.929
  },
  {
    "SMILES_NOTATION": "C[C@H](CCC(=O)NCCS(=O)(=O)O)[C@H]1CC[C@H]2[C@@H]3[C@H](O)C[C@@H]4C[C@H](O)CC[C@]4(C)[C@H]3C[C@H](O)[C@]12C",
    "MEASURE": "RLU, fluorescence trace",
    "U": "RLU",
    "RESULT_NUMBER": 650.88
  },
  {
    "SMILES_NOTATION": "C[C@H](CCC(=O)NCC(=O)O)[C@H]1CC[C@H]2[C@@H]3[C@H](O)C[C@@H]4C[C@H](O)CC[C@]4(C)[C@H]3C[C@H](O)[C@]12C",
    "MEASURE": "RLU, fluorescence trace",
    "U": "RLU",
    "RESULT_NUMBER": 726.989
  }
]

# input Quick one: RLU, fluorescence trace for C[C@H](CCC(=O)O)[C@H]1CC[C@H]2[C@@H]3[C@H](O)C[C@@H]4C[C@H](O)CC[C@]4(C)[C@H]3C[C@H](O)[C@]12C ?
# output 634.908

# input Quick one: RLU, fluorescence trace for C[C@H](CCC(=O)O)[C@H]1CC[C@H]2[C@@H]3CC[C@@H]4C[C@H](O)CC[C@]4(C)[C@H]3C[C@H](O)[C@]12C ?
# output 349.245

# input Quick one: RLU, fluorescence trace for C[C@H](CCC(=O)NCCS(=O)(=O)O)[C@H]1CC[C@H]2[C@@H]3CC[C@@H]4C[C@H](O)CC[C@]4(C)[C@H]3CC[C@]12C ?
# output 288.658

* * *

# Lookup of reported RLU keyed by entry
# SYSTEM_UNDER_TEST: mouse Tas2r144 (Mus musculus, UniProt Q7TQB8)
# Construct: expressed in transfected cells; host or cells: HEK293T-Gα16gust44
# Sequence (Q7TQB8 whole entry): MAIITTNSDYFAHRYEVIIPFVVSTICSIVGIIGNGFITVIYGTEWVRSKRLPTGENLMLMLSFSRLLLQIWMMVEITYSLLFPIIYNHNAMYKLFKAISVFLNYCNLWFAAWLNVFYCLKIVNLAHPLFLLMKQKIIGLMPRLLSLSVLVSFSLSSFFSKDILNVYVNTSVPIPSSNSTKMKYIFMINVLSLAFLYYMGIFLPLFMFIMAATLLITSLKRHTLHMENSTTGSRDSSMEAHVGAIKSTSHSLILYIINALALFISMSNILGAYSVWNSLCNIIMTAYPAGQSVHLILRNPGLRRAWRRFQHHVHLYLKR
# ASSAY_TEXT: Calcium imaging assay (FLIPR), HEK293T-Gα16gust44 cells transfected with mouse Tas2r144
# Assay type: cell-based
# CONDITION_DESCRIPTION: Time 78.781 s
Hi! Could you send only the number? It should be in RLU, unit omitted.

The following compounds have reported results that may help.
[
  {
    "SMILES_NOTATION": "C[C@H](CCC(=O)NCCS(=O)(=O)O)[C@H]1CC[C@H]2[C@@H]3CC[C@@H]4C[C@H](O)CC[C@]4(C)[C@H]3CC[C@]12C",
    "U": "RLU",
    "RLU": 445.771
  },
  {
    "SMILES_NOTATION": "C[C@H](CCC(=O)O)[C@H]1CC[C@H]2[C@@H]3[C@H](O)C[C@@H]4C[C@H](O)CC[C@]4(C)[C@H]3C[C@H](O)[C@]12C",
    "U": "RLU",
    "RLU": 631.561
  },
  {
    "SMILES_NOTATION": "C[C@H](CCC(=O)NCC(=O)O)[C@H]1CC[C@H]2[C@@H]3[C@H](O)C[C@@H]4C[C@H](O)CC[C@]4(C)[C@H]3C[C@H](O)[C@]12C",
    "U": "RLU",
    "RLU": 441.46
  }
]

Shifting focus to the compound that follows.
# input Quick one: RLU for C[C@H](CCC(=O)NCCS(=O)(=O)O)[C@H]1CC[C@H]2[C@@H]3[C@H](O)C[C@@H]4C[C@H](O)CC[C@]4(C)[C@H]3C[C@H](O)[C@]12C ?
# output 571.912

* * *

# SYSTEM_UNDER_TEST: human TAS2R1 (Homo sapiens)
# Construct: expressed in transfected cells; host or cells: HEK293T-Gα16gust44
# ASSAY_TEXT: Calcium imaging assay (FLIPR), HEK293T-Gα16gust44 cells transfected with human TAS2R1
# Type: cell-based
# CONDITION_DESCRIPTION: Time 36.781 s
MEASURE: RLU (RLU)
Hi! Could you send only the number? It should be in RLU, unit omitted.

The following molecules have reported results that may help.
[
  {
    "MOLECULE": "C[C@H](CCC(=O)O)[C@H]1CC[C@H]2[C@@H]3CC[C@@H]4C[C@H](O)CC[C@]4(C)[C@H]3C[C@H](O)[C@]12C [Deoxycholic Acid, deoxycholic acid]",
    "U": "RLU",
    "RLU": 285.115
  },
  {
    "MOLECULE": "C[C@H](CCC(=O)NCCS(=O)(=O)O)[C@H]1CC[C@H]2[C@@H]3[C@H](O)C[C@@H]4C[C@H](O)CC[C@]4(C)[C@H]3C[C@H](O)[C@]12C [Taurocholic Acid, taurocholic acid]",
    "U": "RLU",
    "RLU": 287.098
  },
  {
    "MOLECULE": "C[C@H](CCC(=O)NCCS(=O)(=O)O)[C@H]1CC[C@H]2[C@@H]3CC[C@@H]4C[C@H](O)CC[C@]4(C)[C@H]3CC[C@]12C [Taurolithocholic Acid, taurolithocholic acid]",
    "U": "RLU",
    "RLU": 405.016
  }
]

# input Quick one: RLU for C[C@H](CCC(=O)NCC(=O)O)[C@H]1CC[C@H]2[C@@H]3[C@H](O)C[C@@H]4C[C@H](O)CC[C@]4(C)[C@H]3C[C@H](O)[C@]12C [Glycocholic Acid, glycocholic acid] ?
# output 406.227
